measured.on: human STING variant R293Q (Homo sapiens, UniProt Q86WV6, H232R/R293Q)
Sequence (Q86WV6 whole entry H232R/R293Q): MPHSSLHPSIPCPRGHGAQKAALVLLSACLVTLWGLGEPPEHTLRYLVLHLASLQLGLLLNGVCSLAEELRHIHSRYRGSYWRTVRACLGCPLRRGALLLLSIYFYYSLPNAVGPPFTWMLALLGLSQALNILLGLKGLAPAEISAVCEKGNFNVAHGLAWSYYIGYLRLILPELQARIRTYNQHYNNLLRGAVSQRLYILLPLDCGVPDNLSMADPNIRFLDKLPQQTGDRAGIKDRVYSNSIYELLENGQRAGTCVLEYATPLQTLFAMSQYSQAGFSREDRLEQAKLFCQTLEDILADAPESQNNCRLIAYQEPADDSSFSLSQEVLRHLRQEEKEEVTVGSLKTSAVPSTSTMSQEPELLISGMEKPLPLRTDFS
test.name: THP1-Blue ISG IRF-inducible SEAP reporter assay, STING R293Q-variant
settings: THP1-Blue ISG hSTING KO cells expressing STING R293Q; 24 hours incubation
measured.endpoint: EC50 (nM)
Express your answer in nM, writing the number without its unit.

# molecule, measured.value
data = [
    ("Cc1cc(Cl)cc2c(-c3cccc4nn(C)cc34)nn(-c3ccc(N4C[C@@H]5[C@H](C4)[C@H]5C(=O)O)nc3)c12 [compound 11]", 3000),
    ("Cc1cc(F)cc2c(-c3cccc4nn(C)cc34)nn(-c3ccc(N4C[C@@H]5[C@H](C4)[C@H]5C(=O)O)nc3)c12 [compound 5]", 600),
    ("Cc1cc(Cl)cc2c(-c3cccc4nn(C)cc34)nn(-c3ccc(N4CCC(C(=O)O)CC4)nc3)c12 [compound 10]", 7800),
    ("Cc1cc(F)cc2c(-c3cccc4nn(C)cc34)nn(-c3ccc(N4CCN(C=O)CC4)nc3)c12 [Example #3]", 1800),
]

Consider the molecule Cc1c(Cl)ccc2c(-c3cccc4nn(C)cc34)nn(-c3ccc(N4C[C@@H]5[C@H](C4)[C@H]5C(=O)O)nc3)c12 [compound 8] . State its measured EC50.
100

---

measured.on: human STING variant HAQ (Homo sapiens, UniProt Q86WV6, G230A/H232R/R293Q/R71H)
Sequence (Q86WV6 whole entry R71H/G230A/H232R/R293Q): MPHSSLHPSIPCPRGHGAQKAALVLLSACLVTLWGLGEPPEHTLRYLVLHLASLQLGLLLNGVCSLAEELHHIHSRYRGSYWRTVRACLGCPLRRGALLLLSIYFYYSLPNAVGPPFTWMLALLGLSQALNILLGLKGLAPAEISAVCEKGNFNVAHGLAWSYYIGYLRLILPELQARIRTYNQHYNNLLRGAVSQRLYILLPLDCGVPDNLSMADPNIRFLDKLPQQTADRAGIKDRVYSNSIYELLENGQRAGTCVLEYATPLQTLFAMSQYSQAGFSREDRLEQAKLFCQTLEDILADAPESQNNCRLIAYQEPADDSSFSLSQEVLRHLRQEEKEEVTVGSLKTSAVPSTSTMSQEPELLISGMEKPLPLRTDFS
test.name: THP1-Blue ISG IRF-inducible SEAP reporter assay, STING HAQ-variant
settings: THP1-Blue ISG cells expressing STING HAQ (parental or re-introduced); 24 hours incubation; SEAP OD 620 nm
Reported pEC50 by item:
# log scale: pEC50 equals minus log10 of the concentration in mol/L

Solved entries (count: 3):
# compound, measured.value
measured = [
    ("Cc1c(Cl)c(F)cc2c(-c3cccc4nn(C)cc34)nn(-c3ccc(N4CCC(C(=O)O)CC4)nc3)c12 [compound 12]", 6.15),
    ("Cc1c(F)ccc2c(-c3cccc4nn(C)cc34)nn(-c3ccc(N4C[C@@H]5[C@H](C4)[C@H]5C(=O)O)nc3)c12 [compound 6]", 6.52),
    ("Cc1c(Cl)c(F)cc2c(-c3cccc4nn(C)cc34)nn(-c3ccc(N4C[C@@H]5[C@H](C4)[C@H]5C(=O)O)nc3)c12 [compound 13]", 6.52),
]

Specify pEC50 for Cc1c(Cl)ccc2c(-c3cccc4nn(C)cc34)nn(-c3ccc(N4C[C@@H]5[C@H](C4)[C@H]5C(=O)O)nc3)c12 [compound 8] and stop.
7.00

Output pEC50 of Cc1c(Cl)ccc2c(-c3cccc4nn(C)cc34)nn(-c3ccc(N4CCC(C(=O)O)CC4)nc3)c12 [compound 9]
6.15

Give pEC50 for Cc1cc(F)cc2c(-c3cccc4nn(C)cc34)nn(-c3ccc(N4CCN(C=O)CC4)nc3)c12 [Example #3]
5.72

---

test.name: in vitro
settings: human, Caco-2, pH 7.4
Assign T to entries whose Papp A→B at 10 μM meets or exceeds 10 ×10⁻⁶ cm/s; assign F to the rest.

Example entries and their recorded answers appear below.
# molecule, classification
rows = [
    ("Cc1cc(F)cc2c(-c3cccc4nn(C)cc34)nn(-c3ccc(N4CCC(C(=O)O)CC4)nc3)c12 [compound 4]", "T"),
    ("Cc1c(F)ccc2c(-c3cccc4nn(C)cc34)nn(-c3ccc(N4C[C@@H]5[C@H](C4)[C@H]5C(=O)O)nc3)c12 [compound 6]", "F"),
    ("Cc1cc(F)cc2c(-c3cccc4nn(C)cc34)nn(-c3ccc(N4CCN(C=O)CC4)nc3)c12 [Example #3]", "T"),
    ("Cc1c(Cl)c(F)cc2c(-c3cccc4nn(C)cc34)nn(-c3ccc(N4CCC(C(=O)O)CC4)nc3)c12 [compound 12]", "F"),
    ("Cc1c(Cl)c(F)cc2c(-c3cccc4nn(C)cc34)nn(-c3ccc(N4C[C@@H]5[C@H](C4)[C@H]5C(=O)O)nc3)c12 [compound 13]", "F"),
    ("Cc1cc(F)cc2c(-c3cccc4nn(C)cc34)nn(-c3ccc(N4C[C@@H]5[C@H](C4)[C@H]5C(=O)O)nc3)c12 [compound 5]", "F"),
]

Hi team, for Cc1c(F)ccc2c(-c3cccc4nn(C)cc34)nn(-c3ccc(N4CCC(C(=O)O)CC4)nc3)c12 [compound 7] , is the recorded Papp A→B at 10 μM at or above 10 ×10⁻⁶ cm/s?
T

Determine whether measured Papp A→B at 10 μM meets or exceeds 10 ×10⁻⁶ cm/s for Cc1c(Cl)ccc2c(-c3cccc4nn(C)cc34)nn(-c3ccc(N4C[C@@H]5[C@H](C4)[C@H]5C(=O)O)nc3)c12 [compound 8]
T
